systemName: mCB2 receptor (Mus musculus (Mouse))
testMethodNotes: mCB2 competition-equilibrium binding with [3H]CP-55,940, membranes of HEK293 cells expressing mCB2
assayContext: HEK293 cells expressing mCB2, [3H]CP-55,940; read-out: mCB2 Ki
observable: pKi
The read-out pKi is expressed as -log10 of concentration in moles per litre.

Please look up its pKi: CCOC(=O)C(C)(C)c1cc(OC)c(-c2cc(C)cc(C)c2)c(OC)c1 6.00

Same for CC1=CC[C@@H]2[C@@H](C1)c1c(O)cc(C(C)(C)C(=O)OCCCn3ccnc3)cc1OC2(C)C 8.70

Now try CC1=CC[C@@H]2[C@@H](C1)c1c(O)cc(C3(C(=O)OCCCCBr)CCC3)cc1OC2(C)C . 8.43

Also CCCCOC(=O)[C@@H](C)c1cc(O)c2c(c1)OC(C)(C)[C@@H]1CC=C(C)C[C@@H]21 , if possible. 8.89

Now the same for CCCCOC(=O)C(C)(C)c1cc(O)c2c(c1)OC(C)(C)[C@H]1CC=C(C)C[C@@H]21 9.22

Try CCCCCCC(O)(CC(=O)O)c1cc(O)c2c(c1)OC(C)(C)[C@@H]1CC=C(C)C[C@@H]21 (stereo partly shown) next. 6.00

Now consider CC1=CC[C@@H]2[C@@H](C1)c1c(O)cc(C(C)(C)C(=O)OCCCBr)cc1OC2(C)C and answer again. 8.96
